- Assayed system: Tyrosine-protein kinase JAK2 (Homo sapiens, UniProt O60674)
- Sequence (O60674 whole entry): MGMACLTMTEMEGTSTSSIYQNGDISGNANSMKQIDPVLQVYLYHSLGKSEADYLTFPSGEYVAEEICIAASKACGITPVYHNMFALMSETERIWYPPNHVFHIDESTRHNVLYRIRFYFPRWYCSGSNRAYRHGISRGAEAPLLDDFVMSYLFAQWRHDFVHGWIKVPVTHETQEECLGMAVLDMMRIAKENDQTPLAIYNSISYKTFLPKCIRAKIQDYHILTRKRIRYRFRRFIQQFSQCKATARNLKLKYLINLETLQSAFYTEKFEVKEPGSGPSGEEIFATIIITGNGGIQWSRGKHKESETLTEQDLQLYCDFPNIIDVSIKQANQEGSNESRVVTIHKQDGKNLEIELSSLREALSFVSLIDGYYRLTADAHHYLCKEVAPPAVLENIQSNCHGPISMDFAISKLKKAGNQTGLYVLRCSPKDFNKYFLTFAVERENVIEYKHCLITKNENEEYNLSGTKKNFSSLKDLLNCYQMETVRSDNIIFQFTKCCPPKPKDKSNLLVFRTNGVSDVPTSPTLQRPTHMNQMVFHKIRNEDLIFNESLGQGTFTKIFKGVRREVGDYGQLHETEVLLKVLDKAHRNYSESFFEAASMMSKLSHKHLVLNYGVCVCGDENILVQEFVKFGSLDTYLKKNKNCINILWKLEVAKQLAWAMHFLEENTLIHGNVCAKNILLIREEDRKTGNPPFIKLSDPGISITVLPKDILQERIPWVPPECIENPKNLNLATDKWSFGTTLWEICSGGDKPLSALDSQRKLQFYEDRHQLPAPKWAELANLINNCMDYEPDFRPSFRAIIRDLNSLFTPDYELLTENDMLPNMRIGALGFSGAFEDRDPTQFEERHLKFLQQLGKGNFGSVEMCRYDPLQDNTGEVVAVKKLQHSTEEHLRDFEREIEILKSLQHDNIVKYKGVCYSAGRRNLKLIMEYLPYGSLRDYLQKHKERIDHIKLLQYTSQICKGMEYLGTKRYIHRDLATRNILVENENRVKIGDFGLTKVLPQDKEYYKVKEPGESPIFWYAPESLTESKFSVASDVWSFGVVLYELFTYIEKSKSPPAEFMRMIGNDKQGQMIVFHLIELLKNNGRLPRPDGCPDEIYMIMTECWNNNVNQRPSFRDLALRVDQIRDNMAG
- Procedure details: Inhibition of JAK2 (unknown origin) using FAM-labelled peptide and ATP at 100 nM measured after 25 mins incubation relative to control
Result type: inhibition (%)

Smiles notation	inhibition [%]
CS(=O)(=O)Nc1ccc(-c2ccnc(Nc3ccc(N4CCN(CC(=O)NCCCC(=O)NO)CC4)cc3)n2)cc1	100
CS(=O)(=O)Nc1ccc(-c2ccnc(Nc3ccc(N4CCN(CC(=O)NCCCCCC(=O)NO)CC4)cc3)n2)cc1	99
CS(=O)(=O)Nc1ccc(-c2ccnc(Nc3ccc(N4CCN(CC(=O)NO)CC4)cc3)n2)cc1	99
